// provenance: ChEMBL document CHEMBL3991601

- measured on: Maternal embryonic leucine zipper kinase (Homo sapiens, UniProt Q14680)
- Sequence (Q14680 whole entry): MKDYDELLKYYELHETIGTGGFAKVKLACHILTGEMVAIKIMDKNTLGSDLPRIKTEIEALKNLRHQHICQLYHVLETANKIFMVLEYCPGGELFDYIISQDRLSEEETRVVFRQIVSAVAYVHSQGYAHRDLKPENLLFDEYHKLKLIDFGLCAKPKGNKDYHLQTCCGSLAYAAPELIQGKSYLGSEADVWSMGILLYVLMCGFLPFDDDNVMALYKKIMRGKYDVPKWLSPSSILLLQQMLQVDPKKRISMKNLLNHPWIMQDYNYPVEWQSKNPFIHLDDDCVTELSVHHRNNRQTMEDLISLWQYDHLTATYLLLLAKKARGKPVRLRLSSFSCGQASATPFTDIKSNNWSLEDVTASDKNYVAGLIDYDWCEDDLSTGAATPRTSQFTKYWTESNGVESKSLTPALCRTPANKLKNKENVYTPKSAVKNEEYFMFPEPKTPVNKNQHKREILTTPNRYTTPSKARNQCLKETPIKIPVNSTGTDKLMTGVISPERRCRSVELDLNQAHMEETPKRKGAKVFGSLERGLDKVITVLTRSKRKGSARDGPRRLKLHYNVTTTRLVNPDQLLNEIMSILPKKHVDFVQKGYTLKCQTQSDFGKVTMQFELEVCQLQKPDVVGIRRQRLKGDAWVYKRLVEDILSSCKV
Where a name gives a salt, the structure may show the parent alone. Activity calls are given as the source filed them.
I would appreciate it if you answered using one of these outcomes: yes (1) for active, no (0) for inactive

[[record]]
compound = "C[C@@H](N)c1ccc(C(=O)Nc2ccnc3[nH]ccc23)cc1 [Y-39983]"
assigned_category = "no (0)"

[[record]]
compound = "COc1cc2ncnc(Oc3cccc(NC(=O)Nc4cc(C(C)(C)C(F)(F)F)on4)c3)c2cc1OC [CEP-32496]"
assigned_category = "no (0)"


Recorded call for COCC(=O)NC/C=C/c1ccc2ncnc(Nc3ccc(Oc4ccc(C)nc4)c(C)c3)c2c1 [CP-724714] ?
no (0)

Recorded call for Cn1cnc2c(F)c(Nc3ccc(Br)cc3F)c(C(=O)NOCCO)cc21 [BINIMETINIB] ?
no (0)

Recorded call for COc1ncc(-c2ccc3nccc(-c4ccnnc4)c3c2)cc1NS(=O)(=O)c1ccc(F)cc1F [OMIPALISIB] ?
no (0)

Recorded call for C[C@H]1CNCCCN1S(=O)(=O)c1cccc2cncc(F)c12 ?
no (0)

Recorded call for CNC(=O)c1cc(Oc2ccc(NC(=O)Nc3cc(C(C)(C)C)nn3-c3ccc4ncccc4c3)c(F)c2)ccn1 [REBASTINIB] ?
no (0)

Recorded call for Cc1nc2cc(-c3nn(C(C)C)c4ncnc(N)c34)ccc2o1 ?
yes (1)

Recorded call for O=C(Nc1nc2cccc(-c3ccc(CN4CCS(=O)(=O)CC4)cc3)n2n1)C1CC1 [FILGOTINIB] ?
no (0)

Recorded call for CCn1c(C(=O)N(C2CC2)C2CC2)cc2c3c(ncn3C)c(Nc3cc(C)n(C)n3)nc21 [BMS-911543] ?
no (0)

Recorded call for CO[C@H]1C[C@@H]2CC[C@@H](C)[C@@](O)(O2)C(=O)C(=O)N2CCCC[C@H]2C(=O)O[C@H]([C@H](C)C[C@@H]2CC[C@@H](OC(=O)C(C)(CO)CO)[C@H](OC)C2)CC(=O)[C@H](C)/C=C(\C)[C@@H](O)[C@@H](OC)C(=O)[C@H](C)C[C@H](C)/C=C/C=C/C=C/1C [TEMSIROLIMUS] ?
no (0)

Recorded call for CCS(=O)(=O)N1CCN(c2ccc(Nc3ncc(C(N)=O)c(NC4CC4)n3)cc2)CC1 [Cerdulatinib Hydrochloride] ?
no (0)

Recorded call for CO[C@H]1C[C@@H]2CC[C@@H](C)[C@@](O)(O2)C(=O)C(=O)N2CCCC[C@H]2C(=O)O[C@H]([C@H](C)C[C@@H]2CC[C@@H](O)[C@H](OC)C2)CC(=O)[C@H](C)/C=C(\C)[C@@H](O)[C@@H](OC)C(=O)[C@H](C)C[C@H](C)/C=C/C=C/C=C/1C [SIROLIMUS] ?
no (0)

Recorded call for Cc1cc(Nc2ncc(Cl)c(Nc3ccccc3S(=O)(=O)C(C)C)n2)c(OC(C)C)cc1C1CCNCC1 [CERITINIB] ?
no (0)

----------
- measured on: Ephrin type-B receptor 2 (Homo sapiens)
- Sequence (P29323 whole entry): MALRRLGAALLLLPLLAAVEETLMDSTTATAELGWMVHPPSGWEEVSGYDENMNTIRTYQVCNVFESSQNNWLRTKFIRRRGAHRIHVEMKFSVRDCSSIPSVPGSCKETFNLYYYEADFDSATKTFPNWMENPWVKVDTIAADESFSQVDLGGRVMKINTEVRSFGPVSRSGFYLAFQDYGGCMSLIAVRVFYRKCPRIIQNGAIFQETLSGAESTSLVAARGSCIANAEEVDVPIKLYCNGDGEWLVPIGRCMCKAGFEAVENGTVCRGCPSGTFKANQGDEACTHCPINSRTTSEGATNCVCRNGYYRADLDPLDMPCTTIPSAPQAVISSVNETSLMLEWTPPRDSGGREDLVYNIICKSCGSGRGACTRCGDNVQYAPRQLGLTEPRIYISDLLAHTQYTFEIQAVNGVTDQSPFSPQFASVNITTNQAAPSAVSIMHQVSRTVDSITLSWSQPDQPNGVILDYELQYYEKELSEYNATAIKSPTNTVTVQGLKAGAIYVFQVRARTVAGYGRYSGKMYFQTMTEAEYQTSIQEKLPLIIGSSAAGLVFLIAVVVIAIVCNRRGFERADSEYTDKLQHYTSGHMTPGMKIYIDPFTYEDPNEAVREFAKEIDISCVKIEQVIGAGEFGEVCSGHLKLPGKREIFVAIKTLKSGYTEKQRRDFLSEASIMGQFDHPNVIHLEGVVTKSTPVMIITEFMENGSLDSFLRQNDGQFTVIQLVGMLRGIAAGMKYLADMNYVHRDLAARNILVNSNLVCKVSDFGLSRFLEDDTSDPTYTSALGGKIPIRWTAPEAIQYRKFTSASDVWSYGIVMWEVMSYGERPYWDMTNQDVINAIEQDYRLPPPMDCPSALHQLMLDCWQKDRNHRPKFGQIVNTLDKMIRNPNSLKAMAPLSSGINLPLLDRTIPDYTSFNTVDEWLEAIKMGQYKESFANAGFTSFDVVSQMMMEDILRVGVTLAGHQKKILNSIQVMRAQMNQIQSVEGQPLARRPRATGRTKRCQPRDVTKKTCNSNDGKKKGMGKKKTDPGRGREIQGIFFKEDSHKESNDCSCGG
Activity calls are given as the source filed them.
I would appreciate it if you answered using one of these outcomes: Yes = active, No = inactive

[[record]]
compound = "CNC(=O)c1nn(C)c2c1C(C)(C)Cc1cnc(Nc3ccc(N4CCN(C)CC4)cc3)nc1-2"
assigned_category = "Yes"

[[record]]
compound = "Cc1cccc(-c2nn3c(c2-c2ccnc4ccc(C(N)=O)cc24)CCC3)n1"
assigned_category = "No"

[[record]]
compound = "NC(=O)c1c(OCc2c(F)cc(Br)cc2F)nsc1NC(=O)NCCCCN1CCCC1"
assigned_category = "No"

[[record]]
compound = "Cc1nc2cc(-c3nn(C(C)C)c4ncnc(N)c34)ccc2o1"
assigned_category = "No"

[[record]]
compound = "CCCCCCCCCCCCCCCCCCOP(=O)([O-])OC1CC[N+](C)(C)CC1"
assigned_category = "No"


Recorded call for O=C(Nc1cc(C(F)(F)F)cc(C(F)(F)F)c1)c1cc(Cl)ccc1O ?
No

Recorded call for C[C@@H](NC(=O)c1ncnc(N)c1Cl)c1ncc(C(=O)Nc2cc(C(F)(F)F)c(Cl)cn2)s1 ?
No

Recorded call for CO[C@H]1C[C@@H]2CC[C@@H](C)[C@@](O)(O2)C(=O)C(=O)N2CCCC[C@H]2C(=O)O[C@H]([C@H](C)C[C@@H]2CC[C@@H](OP(C)(C)=O)[C@H](OC)C2)CC(=O)[C@H](C)/C=C(\C)[C@@H](O)[C@@H](OC)C(=O)[C@H](C)C[C@H](C)/C=C/C=C/C=C/1C ?
No

Recorded call for CN(C[C@@H]1COCCO1)S(=O)(=O)Nc1ccc2ccc3ncc(-c4cnn(C)c4)cc3c(=O)c2c1 ?
No
